Numbers sourced from patent US10940139B2.

# Target Of Assay: KRas G12D/Q61H double mutant (Homo sapiens (Human), UniProt P01116, G12D/Q61H)
# Sequence (P01116-2 other isoform, or with tags, fused parts or gaps G12D/Q61H): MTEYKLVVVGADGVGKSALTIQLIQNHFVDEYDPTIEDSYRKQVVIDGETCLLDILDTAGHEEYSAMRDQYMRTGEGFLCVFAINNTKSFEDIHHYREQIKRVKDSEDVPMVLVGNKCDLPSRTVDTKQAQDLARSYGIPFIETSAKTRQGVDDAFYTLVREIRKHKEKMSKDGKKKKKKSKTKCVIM
# Test Name: Ras GTP binding domain inhibition assay (labeled GTP)
# Condition Context: 20 μM compound; KRas G12D/Q61H double mutant; read-out: % Inhibition at 20 μM of K-Ras mutant and wild-type protein, KRas G12D Q61H
Result Type: inhibition at 20 µM

Request the reported inhibition at 20 µM associated with COC(=O)c1sc2c(O)nc(-c3ccccn3)nc2c1C [drawing 3476] 25 to 50%

Request the reported inhibition at 20 µM associated with Cc1sc2c(O)nc(-c3ccccn3)nc2c1-c1ccccc1Cl [drawing 3515] 51 to 75%

Request the reported inhibition at 20 µM associated with COCCCCC(=O)N(c1cc(C)ccc1F)C(C)c1ccc(C)cc1 (stereo not shown) 1 to 25%

Request the reported inhibition at 20 µM associated with COc1ccc(CN(C(C)C2CC2)S(=O)(=O)c2cccs2)cc1 (stereo not shown) 25 to 50%

Request the reported inhibition at 20 µM associated with `CCCOc1nc2ccccc2nc1N1CCN(c2ccccc2F)CC1` 25 to 50%

Request the reported inhibition at 20 µM associated with Oc1nc(-c2ccccn2)nc2c(CC3CNC3)csc12 [drawing 3519] 25 to 50%

Request the reported inhibition at 20 µM associated with `CCN(c1ncc(C(=O)OC)s1)S(=O)(=O)c1ccc(C)c(C)c1` 51 to 75%

====

Would you mind telling me the reported inhibition at 30 µM of each entry?
# Tested on: IL6 production in RAW 264.7 macrophage cell line
# Test Name: Mouse IL6 quantification assay (LPS-stimulated macrophages, ELISA)
# Type: cell-based
# Condition Context: RAW264.7, RAW 264.7 murine leukemia virus transformed macrophage cell lines, LPS stimulation, read-out: IL-6 % Inhibition at 30 μM

For the record O=C(c1csc2c(O)nc(-c3ccccn3)nc12)N1CCNC(c2ccccc2Cl)C1 (stereo not shown) [drawing 2216] , what value of inhibition at 30 µM is listed for IL6 production in RAW 264.7 macrophage cell line? 51 to 75%

For the record Cn1ccnc1-c1nc(O)c2scc(-c3ccc(C(C)(C)C)cc3)c2n1 [drawing 2446] , what value of inhibition at 30 µM is listed for IL6 production in RAW 264.7 macrophage cell line? 1 to 25%

For the record Nc1nc(O)c2scc(C(=O)N(CCO)CCOCCO)c2n1 [drawing 2096] , what value of inhibition at 30 µM is listed for IL6 production in RAW 264.7 macrophage cell line? 1 to 25%

For the record O=C(NCCc1ccc(O)c(O)c1)c1csc2nc(-c3ccccn3)nc(N3CCOCC3)c12 [drawing 2204] , what value of inhibition at 30 µM is listed for IL6 production in RAW 264.7 macrophage cell line? 1 to 25%

For the record Cn1ccnc1-c1nc(O)c2scc(-c3cccc(C(F)(F)F)c3)c2n1 [drawing 2425] , what value of inhibition at 30 µM is listed for IL6 production in RAW 264.7 macrophage cell line? 76 to 100%

For the record CC(C)c1nc(CC(=O)Nc2nnc(-c3ccccn3)[nH]2)cs1 [drawing 1949] , what value of inhibition at 30 µM is listed for IL6 production in RAW 264.7 macrophage cell line? 1 to 25%

For the record O=C(CCn1ccc2ccccc21)Nc1nnc(-c2ccccn2)[nH]1 [drawing 1934] , what value of inhibition at 30 µM is listed for IL6 production in RAW 264.7 macrophage cell line? 1 to 25%

For the record O=c1nc(-c2ccccn2)[nH]c2sc(-c3ccccc3)cc12 [drawing 2028] , what value of inhibition at 30 µM is listed for IL6 production in RAW 264.7 macrophage cell line? 51 to 75%

For the record COc1ccc(CN(CC[S+]([O-])c2cc(Cl)ccc2Cl)C2CC2)cc1 (stereo not shown) [drawing 2060] , what value of inhibition at 30 µM is listed for IL6 production in RAW 264.7 macrophage cell line? 0%

For the record O=S1(=O)CCC(N2CCN(c3nc(-c4ccccn4)nc4scc(-c5ccccc5)c34)CC2)C1 (stereo not shown) [drawing 2145] , what value of inhibition at 30 µM is listed for IL6 production in RAW 264.7 macrophage cell line? 1 to 25%

For the record Oc1nc(-c2ccccn2)nc2c(-c3ccccc3OC3CCCCC3)csc12 [drawing 2258] , what value of inhibition at 30 µM is listed for IL6 production in RAW 264.7 macrophage cell line? 76 to 100%

For the record O=C(COCc1ccncc1)Nc1nc(-c2ccccn2)nc2sccc12 [drawing 2221] , what value of inhibition at 30 µM is listed for IL6 production in RAW 264.7 macrophage cell line? 76 to 100%

For the record O=C(c1csc2c(O)nc(-c3ccccn3)nc12)N1CCC(N2CCCC2=O)CC1 [drawing 2106] , what value of inhibition at 30 µM is listed for IL6 production in RAW 264.7 macrophage cell line? 1 to 25%

For the record O=C(CCn1ccnc1)Nc1nc(-c2ccccn2)nc2sccc12 [drawing 2281] , what value of inhibition at 30 µM is listed for IL6 production in RAW 264.7 macrophage cell line? 51 to 75%

For the record COc1ccc(-c2csc3[nH]c(-c4ccccn4)nc(=O)c23)cc1 [drawing 2023] , what value of inhibition at 30 µM is listed for IL6 production in RAW 264.7 macrophage cell line? 26 to 50%

For the record O=C(Nc1nnc(-c2ccccn2)[nH]1)c1cccc(NC(=O)C2CCCO2)c1 (stereo not shown) [drawing 1961] , what value of inhibition at 30 µM is listed for IL6 production in RAW 264.7 macrophage cell line? 1 to 25%
